Test system: Hep G2
Assay: MTT cytotoxicity assay on Hep G2 cell line
Assay type: cell-based
Conditions: human, 24 h, 50 μM
assay.metric: Percentage of viable cells after treatment (%)
Please respond with the number in % and leave the unit unwritten.

Output Percentage of viable cells after treatment of CC[C@H]1OC(=O)[C@H](C)[C@@H](O[C@H]2C[C@@](C)(OC)[C@@H](O)[C@H](C)O2)[C@H](C)[C@@H](O[C@@H]2O[C@H](C)C[C@H](N(C)C)[C@H]2O)[C@](C)(OC)C[C@@H](C)C(=O)[C@H](C)[C@@H](O)[C@]1(C)O [Clarithromycin, clarithromycin, reference compound]
100

Identify measured Percentage of viable cells after treatment corresponding to CC[C@H]1OC(=O)[C@H](C)[C@@H](O[C@H]2C[C@@](C)(OC)[C@@H](O)[C@H](C)O2)[C@H](C)[C@@H](O[C@@H]2O[C@H](C)C[C@H](N(C)C)[C@H]2O)[C@](C)(O)C[C@@H](C)CN(C(=S)Nc2ccccc2F)[C@H](C)[C@@H](O)[C@]1(C)O [Compound 5]
100

Give recorded Percentage of viable cells after treatment. CC[C@H]1OC(=O)[C@H](C)[C@@H](O[C@H]2C[C@@](C)(OC)[C@@H](O)[C@H](C)O2)[C@H](C)[C@@H](O[C@@H]2O[C@H](C)C[C@H](N(C)C)[C@H]2O)[C@](C)(O)C[C@@H](C)CN(C(=O)NC(C)c2cccc3ccccc23)[C@H](C)[C@@H](O)[C@]1(C)O (some centres unmarked) [Compound 12]
8

Input CC[C@H]1OC(=O)[C@H](C)[C@@H](O[C@H]2C[C@@](C)(OC)[C@@H](O)[C@H](C)O2)[C@H](C)[C@@H](O[C@@H]2O[C@H](C)C[C@H](N(C)C)[C@H]2O)[C@](C)(O)C[C@@H](C)CN(C(=O)Nc2ccc(C(F)(F)F)cc2)[C@H](C)[C@@H](O)[C@]1(C)O [Compound 9] , output reported Percentage of viable cells after treatment.
21

====

System: TNF-α
Experiment: Inhibition of TNF-α production by stimulated human peripheral blood leukocytes in vitro
Assay type: cell-based
Conditions: Homo sapiens, Leukocyte, PBL, LPS stimulated, compound 50 μM; read-out: Percentage of inhibition of TNF-α production
Exercise: state measured inhibition at 50 µM for each of the compounds provided.
Numeric answer only, unit % assumed.

For CC[C@H]1OC(=O)[C@H](C)[C@@H](O[C@H]2C[C@@](C)(OC)[C@@H](O)[C@H](C)O2)[C@H](C)[C@@H](O[C@@H]2O[C@H](C)C[C@H](N(C)C)[C@H]2O)[C@](C)(O)C[C@@H](C)CN(C(=O)NC(C)c2cccc3ccccc23)[C@H](C)[C@@H](O)[C@]1(C)O (stereo partly shown) , write its inhibition at 50 µM.
100

Name the recorded inhibition at 50 µM of the item CC[C@H]1OC(=O)[C@H](C)[C@@H](O[C@H]2C[C@@](C)(OC)[C@@H](O)[C@H](C)O2)[C@H](C)[C@@H](O[C@@H]2O[C@H](C)C[C@H](N(C)C)[C@H]2O)[C@](C)(OC)C[C@@H](C)C(=O)[C@H](C)[C@@H](O)[C@]1(C)O [Clarithromycin, clarithromycin, reference compound] in your answer.
0

# return recorded inhibition at 50 µM for entry "CC[C@H]1OC(=O)[C@H](C)[C@@H](O[C@H]2C[C@@](C)(OC)[C@@H](O)[C@H](C)O2)[C@H](C)[C@@H](O[C@@H]2O[C@H](C)C[C@H](N(C)C)[C@H]2O)[C@](C)(O)C[C@@H](C)CN(C(=S)Nc2cccc(Br)c2)[C@H](C)[C@@H](O)[C@]1(C)O"
100

Identify measured inhibition at 50 µM associated with "CC[C@H]1OC(=O)[C@H](C)[C@@H](O[C@H]2C[C@@](C)(OC)[C@@H](O)[C@H](C)O2)[C@H](C)[C@@H](O[C@@H]2O[C@H](C)C[C@H](N(C)C)[C@H]2O)[C@](C)(O)C[C@@H](C)CN(C(=S)Nc2cccc(C(F)(F)F)c2)[C@H](C)[C@@H](O)[C@]1(C)O"
100

====

Test system: IL-1α
Experiment: Inhibition of IL-1 production by stimulated human peripheral blood leukocytes in vitro
Type: cell-based
Settings: PBL, PMA stimulated, compound 10 μM
assay.metric: Percentage of inhibition of IL-1α production (%)
Answer with a number only, understood to be in %.

Param request: Percentage of inhibition of IL-1α production | system IL-1α | item CC[C@H]1OC(=O)[C@H](C)[C@@H](O[C@H]2C[C@@](C)(OC)[C@@H](O)[C@H](C)O2)[C@H](C)[C@@H](O[C@@H]2O[C@H](C)C[C@H](N(C)C)[C@H]2O)[C@](C)(O)C[C@@H](C)CN(C(=S)Nc2ccc(Br)cc2)[C@H](C)[C@@H](O)[C@]1(C)O [Compound 7]
0

Check IL-1α data and give Percentage of inhibition of IL-1α production for CC[C@H]1OC(=O)[C@H](C)[C@@H](O[C@H]2C[C@@](C)(OC)[C@@H](O)[C@H](C)O2)[C@H](C)[C@@H](O[C@@H]2O[C@H](C)C[C@H](N(C)C)[C@H]2O)[C@](C)(O)C[C@@H](C)CN(C(=O)Nc2ccc(Cl)c(C(F)(F)F)c2)[C@H](C)[C@@H](O)[C@]1(C)O [Compound 10] .
0

Report its Percentage of inhibition of IL-1α production with IL-1α as the test system: CC[C@H]1OC(=O)[C@H](C)[C@@H](O)[C@H](C)[C@@H](O[C@@H]2O[C@H](C)C[C@H](N(C)C)[C@H]2O)[C@](C)(O)C[C@@H](C)CN(C(=O)NCc2ccccc2)[C@H](C)[C@@H](O)[C@]1(C)O [Compound 8]
26

# assay system IL-1α: give Percentage of inhibition of IL-1α production of CCC1OC(=O)C(C)C(OC2CC(C)(OC)C(O)C(C)O2)C(C)C(OC2OC(C)CC(N(C)C)C2O)C(C)(O)CC(C)CN(C(=S)Nc2ccc(Cl)cc2)C(C)C(O)C1(C)O (stereo not drawn) [Compound 2]
18

// fetch Percentage of inhibition of IL-1α production; item: CCC1OC(=O)C(C)C(O)C(C)C(OC2OC(C)CC(N(C)C)C2O)C(C)(O)CC(C)CN(C(=S)NCc2ccccc2)C(C)C(O)C1(C)O (stereo not drawn) [Compound 1] ; system: IL-1α
38

State recorded Percentage of inhibition of IL-1α production with IL-1α, entry CCC1OC(=O)C(C)C(OC2CC(C)(OC)C(O)C(C)O2)C(C)C(OC2OC(C)CC(N(C)C)C2O)C(C)(O)CC(C)CN(C(=S)Nc2cccc(F)c2)C(C)C(O)C1(C)O (stereo not drawn) [Compound 3] , no comment.
4

====

System: TNF-α
Assay: Lipopolysaccharide induced TNF-α production in Balb/cJ mice
Type: in vivo
Conditions: LPS stimulated Balb/cJ mice, 10 mg/kg b.w. intraperitoneally, plasma 90 min after challenge
assay.metric: TNF-α (% inhibition) (%)
The reply should contain only the number, in %.

Lab note: TNF-α assay, enter TNF-α (% inhibition) for CCC1OC(=O)C(C)C(OC2CC(C)(OC)C(O)C(C)O2)C(C)C(OC2OC(C)CC(N(C)C)C2O)C(C)(O)CC(C)CN(C(=S)Nc2cccc(F)c2)C(C)C(O)C1(C)O (centres unmarked) here
29

Recall the reported TNF-α (% inhibition) of CC[C@H]1OC(=O)[C@H](C)[C@@H](O[C@H]2C[C@@](C)(OC)[C@@H](O)[C@H](C)O2)[C@H](C)[C@@H](O[C@@H]2O[C@H](C)C[C@H](N(C)C)[C@H]2O)[C@](C)(O)C[C@@H](C)CN(C)[C@H](C)[C@@H](O)[C@]1(C)O [Azithromycin, azithromycin, reference compound] on TNF-α and write it down.
54

Report TNF-α (% inhibition) under test system TNF-α for "CC[C@H]1OC(=O)[C@H](C)[C@@H](O[C@H]2C[C@@](C)(OC)[C@@H](O)[C@H](C)O2)[C@H](C)[C@@H](O[C@@H]2O[C@H](C)C[C@H](N(C)C)[C@H]2O)[C@](C)(O)C[C@@H](C)CN(C(=S)Nc2ccccc2F)[C@H](C)[C@@H](O)[C@]1(C)O" .
50

Under TNF-α: report TNF-α (% inhibition) of CC[C@H]1OC(=O)[C@H](C)[C@@H](O[C@H]2C[C@@](C)(OC)[C@@H](O)[C@H](C)O2)[C@H](C)[C@@H](O[C@@H]2O[C@H](C)C[C@H](N(C)C)[C@H]2O)[C@](C)(OC)C[C@@H](C)C(=O)[C@H](C)[C@@H](O)[C@]1(C)O [Clarithromycin, clarithromycin, reference compound] .
63

Provide measured TNF-α (% inhibition) on TNF-α for CCC1OC(=O)C(C)C(O)C(C)C(OC2OC(C)CC(N(C)C)C2O)C(C)(O)CC(C)CN(C(=S)NCc2ccccc2)C(C)C(O)C1(C)O (centres unmarked) please.
31
